system: Dengue virus type 2 strain New Guinea C (NG-C) or Dengue virus type 4 strain H241; assay: Dengue virus cell-based assay (Huh-7.5 cells, CellTiter-Glo); conditions: Huh-7.5 cells, antiviral activity; dengue type (2 NG-C or 4 H241) not given; read-out: IC50
IC50 for assorted compounds

Problem: Input C#C[C@]1(O)[C@H](n2cnc3c(OCC)nc(N)nc32)O[C@](F)(CO[P@](=O)(N[C@@H](C)C(=O)OC2CCCCC2)Oc2ccccc2)[C@H]1O [Compound 27] , output reported IC50.
Solution: < 10 µM

Pending compound:
Problem: Please give measured IC50 of the following entry: C#C[C@]1(O)[C@H](n2cnc3c(OCC)nc(N)nc32)O[C@](F)(CO[P@@](=O)(N[C@@H](C)C(=O)OC2CCCCC2)Oc2ccccc2)[C@H]1O [Compound 28]
Solution: < 10 µM

---

target: human rhinovirus 16 polymerase (HRV16pol) (Human rhinovirus 16); assay: biochemical; details: HRV16pol, 2.5 h at 30° C., mean of several independent experiments; read-out: IC50
# IC50 per record follows

Problem: Consider the compound CC[C@]1(O)[C@H](n2ccc(=O)[nH]c2=O)O[C@](F)(COP(=O)(O)OP(=O)(O)OP(=O)(O)O)[C@H]1O [compound 239] . State its measured IC50.
Solution: < 10 µM

Problem: Provide measured IC50 value, entry: C=C[C@]1(COP(=O)(O)OP(=O)(O)OP(=O)(O)O)O[C@@H](n2ccc(=O)[nH]c2=O)C(F)(F)[C@@H]1O [compound 72]
Solution: < 100 µM

Problem: Read off the recorded IC50 for O=c1ccn([C@@H]2O[C@](CCl)(COP(=O)(O)OP(=O)(O)OP(=O)(O)O)[C@@H](O)C2(F)F)c(=O)[nH]1 [compound 73]
Solution: < 10 µM

Problem: Specify IC50 for C#C[C@]1(O)[C@H](n2cnc3c(=O)[nH]c(N)nc32)O[C@](F)(COP(=O)(O)OP(=O)(O)OP(=O)(O)O)[C@H]1F [compound 103] and stop.
Solution: < 1 µM

Problem: Item C=C=C[C@@]1(O)[C@H](O)[C@@](CF)(COP(=O)(O)OP(=O)(O)OP(=O)(O)O)O[C@H]1n1ccc(=O)[nH]c1=O [compound 255] : provide IC50
Solution: < 10 µM

More entries:
Problem: For the compound Nc1ccn([C@@H]2O[C@H](COP(=O)(O)OP(=O)(O)OP(=O)(O)O)[C@@H](O)[C@]2(O)CF)c(=O)n1 [compound 276] , report IC50.
Solution: < 10 µM

---

target: human rhinovirus 16 polymerase (HRV16pol) (Human rhinovirus 16); assay: biochemical; details: HRV16pol, 2.5 h at 30° C., mean of several independent experiments; read-out: IC50
pIC50: −log10 of the molar value.
Measured pIC50, listed per entry.

Problem: Using known records, supply pIC50 for C[C@]1(COP(=O)(O)OP(=O)(O)OP(=O)(O)O)O[C@@H](n2ccc(N)nc2=O)C(F)(F)[C@@H]1O [compound 277]
Solution: > 5.00

Problem: Give pIC50 for the following compound: [N-]=[N+]=NC[C@]1(COP(=O)(O)OP(=O)(O)OP(=O)(O)O)O[C@@H](n2ccc(N)nc2=O)C(F)(F)[C@@H]1O [compound 274]
Solution: > 5.00

Let us move to another entry and its pIC50.
Problem: Provide measured pIC50 value, entry: [N-]=[N+]=NC[C@]1(COP(=O)(O)OP(=O)(O)OP(=O)(O)O)O[C@@H](n2ccc(N)nc2=O)[C@H](O)[C@@H]1O [compound 275]
Solution: > 5.00

---

pIC50 values for the compounds below.
target: human rhinovirus 16 polymerase (HRV16pol) (Human rhinovirus 16, UniProt Q82122); assay: biochemical; settings: HRV16pol, 2.5 h at 30° C., mean of several independent experiments; read-out: IC50
Sequence (Q82122 1694-2153 limits assumed): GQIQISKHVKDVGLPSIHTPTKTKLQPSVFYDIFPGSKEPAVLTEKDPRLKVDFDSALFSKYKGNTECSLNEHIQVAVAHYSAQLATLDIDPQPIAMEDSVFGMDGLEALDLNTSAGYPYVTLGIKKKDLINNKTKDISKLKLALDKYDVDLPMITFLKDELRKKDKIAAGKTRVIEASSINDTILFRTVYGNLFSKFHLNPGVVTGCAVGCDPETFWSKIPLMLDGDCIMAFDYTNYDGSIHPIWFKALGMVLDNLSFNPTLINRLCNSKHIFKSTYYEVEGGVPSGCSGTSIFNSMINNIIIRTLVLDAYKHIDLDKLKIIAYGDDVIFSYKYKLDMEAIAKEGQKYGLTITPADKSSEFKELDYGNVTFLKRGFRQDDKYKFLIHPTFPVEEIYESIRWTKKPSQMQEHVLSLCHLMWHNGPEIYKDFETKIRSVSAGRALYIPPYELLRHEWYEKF
pIC50: −log10 of the molar value.

Below, 5 compounds whose answers are already recorded.
Problem: Retrieve pIC50 measured for `Nc1ccn([C@@H]2O[C@](CF)(COP(=O)(O)OP(=O)(O)OP(=O)(O)O)[C@@H](O)C2(F)F)c(=O)n1` and print it.
Solution: > 6.00

Problem: Using known records, supply pIC50 for `[N-]=[N+]=NC[C@]1(COP(=O)(O)OP(=O)(O)OP(=O)(O)O)O[C@@H](n2ccc(N)nc2=O)[C@H](F)[C@@H]1O`
Solution: > 6.00

Problem: Respond only with pIC50 recorded for `C[C@]1(O)[C@H](n2ccc(=O)[nH]c2=O)O[C@](F)(COP(=O)(O)OP(=O)(O)OP(=O)(O)O)[C@H]1O`
Solution: > 5.00

Problem: Quick one: give measured pIC50 for `C#C[C@]1(F)[C@H](n2ccc(=O)[nH]c2=O)O[C@](F)(COP(=O)(O)OP(=O)(O)OP(=O)(O)O)[C@H]1O`
Solution: > 5.00

Problem: Tell me its pIC50 given `C#C[C@@]1(O)[C@H](O)[C@@](CF)(COP(=O)(O)OP(=O)(O)OP(=O)(O)O)O[C@H]1n1cnc2c(N)ncnc21` as the entry.
Solution: > 6.00

Continuing:
Problem: Indicate the recorded pIC50 value for this compound: `C[C@]1(O)[C@H](n2ccc(=O)[nH]c2=O)O[C@@](COP(=O)(O)OP(=O)(O)OP(=O)(O)O)(C(F)F)[C@H]1O`
Solution: > 5.00

Problem: Give a short answer stating reported pIC50 for `C[C@@]1(O)[C@H](O)[C@@](CCl)(COP(=O)(O)OP(=O)(O)OP(=O)(O)O)O[C@H]1n1ccc(=O)[nH]c1=O` .
Solution: > 5.00

Problem: Report pIC50, nothing else, for this compound: `C#C[C@]1(O)[C@H](n2ccc(=O)[nH]c2=O)O[C@](F)(COP(=O)(O)OP(=O)(O)OP(=O)(O)O)[C@H]1O`
Solution: > 6.00

Problem: Give the reported value of pIC50 for this record: `C=CC[C@@]1(O)[C@H](O)[C@@](CF)(COP(=O)(O)OP(=O)(O)OP(=O)(O)O)O[C@H]1n1ccc(=O)[nH]c1=O`
Solution: > 5.00

Problem: Answer with reported pIC50 of `Nc1ccn([C@@H]2O[C@](CF)(COP(=O)(O)OP(=O)(O)OP(=O)(O)O)[C@@H](O)[C@]2(O)CF)c(=O)n1`
Solution: > 6.00

Problem: Respond only with pIC50 recorded for `C[C@]1(O)[C@H](n2ccc(=O)[nH]c2=O)O[C@](C)(COP(=O)(O)OP(=O)(O)OP(=O)(O)O)[C@H]1O`
Solution: > 5.00

Problem: Assign pIC50 to the following record: `C[C@]1(O)[C@H](n2cnc3c(=O)[nH]c(N)nc32)O[C@](F)(COP(=O)(O)OP(=O)(O)OP(=O)(O)O)[C@H]1F`
Solution: > 6.00

---

# Lookup of reported IC50 keyed by entry
biological target: NS5B570-Con1 (Delta-21) (Hepatitis C virus genotype 1b); assay: biochemical

Problem: Supply recorded IC50 for `C=C[C@]1(O)[C@H](n2ccc(=O)[nH]c2=O)O[C@](F)(COP(=O)(O)OP(=O)(O)OP(=O)(O)O)[C@H]1O` here.
Solution: 1000 to 10000 nM

Problem: Tell me measured IC50 for `C[C@@]1(O)[C@H](O)[C@@](CF)(COP(=O)(O)OP(=O)(O)OP(=O)(O)O)O[C@H]1n1ccc(=O)[nH]c1=O` please.
Solution: < 1000 nM

Continuing:
Problem: Read off the recorded IC50 for `C[C@@]1(O)[C@H](O)[C@@](CF)(COP(=O)(O)OP(=O)(O)OP(=O)(O)O)O[C@H]1n1ccc(N)nc1=O`
Solution: < 1000 nM
